# tgt: human GAT-1 (Homo sapiens)
# Sequence (P30531 whole entry): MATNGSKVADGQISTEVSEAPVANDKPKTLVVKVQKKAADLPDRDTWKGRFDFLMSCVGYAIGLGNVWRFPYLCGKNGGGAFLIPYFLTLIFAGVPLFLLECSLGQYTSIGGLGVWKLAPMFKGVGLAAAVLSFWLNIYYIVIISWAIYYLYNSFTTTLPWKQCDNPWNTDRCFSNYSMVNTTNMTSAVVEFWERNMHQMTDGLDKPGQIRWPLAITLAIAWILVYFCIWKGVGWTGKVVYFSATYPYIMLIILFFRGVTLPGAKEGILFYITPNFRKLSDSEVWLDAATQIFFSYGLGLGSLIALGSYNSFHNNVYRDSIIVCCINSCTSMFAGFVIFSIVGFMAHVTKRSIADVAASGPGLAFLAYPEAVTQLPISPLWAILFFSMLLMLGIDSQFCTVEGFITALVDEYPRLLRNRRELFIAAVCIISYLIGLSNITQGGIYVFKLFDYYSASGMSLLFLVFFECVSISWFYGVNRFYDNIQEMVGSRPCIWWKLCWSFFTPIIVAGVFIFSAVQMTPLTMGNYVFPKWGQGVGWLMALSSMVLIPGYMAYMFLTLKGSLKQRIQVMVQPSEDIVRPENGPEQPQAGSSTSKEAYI
# study.conditions: read-out: IC50, human GAT-1, inhibition of [3H]GABA uptake; Table 9; stable LM(tk-) cell line; means ± S.E.M.
result.type: pIC50
Expect pIC50 as a plain number equal to -log10 of the molar concentration.

INPUT: Observed pIC50 on human GAT-1 (Homo sapiens) for O=C(O)C1=CCCNC1 [guvacine] , please.
OUTPUT: 4.85

====

# tgt: human GAT-3 (Homo sapiens)
# Sequence (P48066 whole entry): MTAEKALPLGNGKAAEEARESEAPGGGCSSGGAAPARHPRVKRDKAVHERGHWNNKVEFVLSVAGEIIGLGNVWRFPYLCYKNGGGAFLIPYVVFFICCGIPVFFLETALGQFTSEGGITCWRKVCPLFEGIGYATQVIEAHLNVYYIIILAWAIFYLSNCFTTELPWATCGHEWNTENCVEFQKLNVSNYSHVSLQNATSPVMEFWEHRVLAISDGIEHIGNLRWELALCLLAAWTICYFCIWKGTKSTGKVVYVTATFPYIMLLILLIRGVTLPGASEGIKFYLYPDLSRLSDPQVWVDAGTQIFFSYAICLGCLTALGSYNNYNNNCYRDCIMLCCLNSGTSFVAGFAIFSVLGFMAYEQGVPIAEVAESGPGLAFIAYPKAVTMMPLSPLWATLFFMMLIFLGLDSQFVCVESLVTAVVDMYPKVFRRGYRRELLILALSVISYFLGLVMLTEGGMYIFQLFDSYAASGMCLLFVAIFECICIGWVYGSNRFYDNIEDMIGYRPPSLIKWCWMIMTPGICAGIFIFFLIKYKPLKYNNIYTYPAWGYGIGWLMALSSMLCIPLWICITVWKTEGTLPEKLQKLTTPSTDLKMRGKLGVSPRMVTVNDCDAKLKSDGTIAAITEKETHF
# protocol.summary: Inhibition of [3H]GABA uptake, human GAT-3 stable LM(tk-) cell line
# study.conditions: read-out: IC50, human GAT-3, inhibition of [3H]GABA uptake, Table 9, means ± S.E.M.
Please go through the items and note down their pIC50.
Expect pIC50 as a plain number equal to -log10 of the molar concentration.

INPUT: Query (molecule): Cc1ccsc1C(=CCCN1CCC[C@@H](C(=O)O)C1)c1sccc1C ; field requested: pIC50
OUTPUT: 3.04

INPUT: Query (molecule): O=C(O)C1=CCCN(CCOC(c2ccc(C(F)(F)F)cc2)c2ccc(C(F)(F)F)cc2)C1 ; field requested: pIC50
OUTPUT: 3.48

INPUT: Query (molecule): O=C(O)C1=CCCNC1 ; field requested: pIC50
OUTPUT: 3.92

INPUT: Query (molecule): O=C(O)C1CCCN(CCC=C(c2ccccc2)c2ccccc2)C1 (stereo not shown) ; field requested: pIC50
OUTPUT: 3.03

Source: patent US5766848A
